Test system: TLR-4 activity of A. baumannii culture supernatants
Assay: TLR4 assay: TLR4 activity of A. baumannii culture supernatants in HEK-Blue-hTLR4 cells
Assay type: cell-based
Details: Acinetobacter baumannii, HEK-Blue hTLR4, read-out: % TLR-4 activity
Experimental: The TLR4 assay measures activity of diluted filter-sterilized A. baumannii culture supernatants. The assay was performed as described in Lin et al, Mbio, 2012. Briefly, A. baumannii was passaged to mid log-phase in the presence of Forge LpxC inhibitors. Culture supernatants were harvested, filter-sterilized and diluted 1:1000. […]
// reported activity at 8 µg/mL per item
measure: activity at 8 µg/mL

INSERT INTO assay_data (compound, measure, result) VALUES
  ('CO[C@@H]1CCN(Cc2ccc(C#Cc3ccc(CC(C(=O)NCC(F)F)c4nc[nH]c(=O)c4O)cc3)cc2)C1 (stereo partly drawn)', 'activity at 8 µg/mL', '50 to 80%'),
  ('O=C(NCC(Cc1ccc(C#Cc2ccc(CN3CCOCC3)cc2)cc1)c1nc[nH]c(=O)c1O)C(F)F (stereo not drawn)', 'activity at 8 µg/mL', '50 to 80%'),
  ('O=C(NCC(F)(F)F)C(Cc1ccc(C#Cc2ccc(CN3CCOCC3)cc2)cc1)c1nc[nH]c(=O)c1O (stereo not drawn)', 'activity at 8 µg/mL', '< 20%'),
  ('O=C(NCCF)C(Cc1ccc(C#Cc2ccc(CN3CCOCC3)cc2)cc1)c1nc[nH]c(=O)c1O (stereo not drawn)', 'activity at 8 µg/mL', '20 to 50%'),
  ('O=c1[nH]cnc(CCc2ccc(C#Cc3ccc(CN4CC(O)C4)cc3)c(F)c2)c1O', 'activity at 8 µg/mL', '50 to 80%'),
  ('O=c1[nH]cnc(C(CNCCF)Cc2ccc(C#Cc3ccc(CN4CCOCC4)cc3)cc2)c1O (stereo not drawn)', 'activity at 8 µg/mL', '< 20%'),
  ('COCCNC(=O)C(Cc1ccc(C#Cc2ccc(CN3CCOCC3)cc2)cc1)c1nc[nH]c(=O)c1O (stereo not drawn)', 'activity at 8 µg/mL', '50 to 80%'),
  ('O=c1[nH]cnc(C(CNCC(F)F)Cc2ccc(C#Cc3ccc(CN4CCOCC4)cc3)cc2)c1O (stereo not drawn)', 'activity at 8 µg/mL', '50 to 80%'),
  ('CC(=O)NC[C@@H](Cc1ccc(C#Cc2ccc(CN3CCOCC3)cc2)cc1)c1nc[nH]c(=O)c1O', 'activity at 8 µg/mL', '> 80%'),
  ('O=c1[nH]cnc(C(CNCCF)Cc2ccc(C#Cc3ccc(CO)cc3)cc2)c1O (stereo not drawn)', 'activity at 8 µg/mL', '< 20%'),
  ('O=C(NCC(F)F)C(Cc1ccc(C#Cc2ccc(CN3CCOCC3)cc2)cc1)c1nc[nH]c(=O)c1O (stereo not drawn)', 'activity at 8 µg/mL', '< 20%'),
  ('O=c1[nH]cnc(C(CNCCF)Cc2ccc(C#Cc3ccc(CN4CC5CCC(C4)O5)cc3)cc2)c1O (stereo not drawn)', 'activity at 8 µg/mL', '20 to 50%'),
  ('CCCNCC(Cc1ccc(C#Cc2ccc(CN3CCOCC3)cc2)cc1)c1nc[nH]c(=O)c1O (stereo not drawn)', 'activity at 8 µg/mL', '> 80%'),
  ('N#CC1CCN(Cc2ccc(C#Cc3ccc(CC(C(=O)NCC(F)F)c4nc[nH]c(=O)c4O)cc3)cc2)C1 (stereo not drawn)', 'activity at 8 µg/mL', '< 20%'),
  ('O=C1CCCN1Cc1ccc(C#Cc2ccc(CC(CNCCF)c3nc[nH]c(=O)c3O)cc2)cc1 (stereo not drawn)', 'activity at 8 µg/mL', '20 to 50%');

====

test system: TLR-4 activity of A. baumannii culture supernatants; assay: TLR4 assay: TLR4 activity of A. baumannii culture supernatants in HEK-Blue-hTLR4 cells; assay type: cell-based; settings: Acinetobacter baumannii, HEK-Blue hTLR4, read-out: % TLR-4 activity
measure: activity at 16 µg/mL

INSERT INTO measurements (compound, target_of_assay, result) VALUES
  ('O=c1[nH]cnc(C(CNCC(F)F)Cc2ccc(C#Cc3ccc(CN4CCOCC4)cc3)cc2)c1O (centres unmarked) [Compound 57]', 'TLR-4 activity of A. baumannii culture supernatants', '20 to 50%'),
  ('O=c1[nH]cnc(C(CNCCF)Cc2ccc(C#Cc3ccc(CO)cc3)cc2)c1O (centres unmarked) [Compound 195]', 'TLR-4 activity of A. baumannii culture supernatants', '< 20%'),
  ('COCCNC(=O)C(Cc1ccc(C#Cc2ccc(CN3CCOCC3)cc2)cc1)c1nc[nH]c(=O)c1O (centres unmarked) [Compound 153]', 'TLR-4 activity of A. baumannii culture supernatants', '< 20%'),
  ('O=c1[nH]cnc(C(CNCCF)Cc2ccc(C#Cc3ccc(CN4CCOCC4)cc3)cc2)c1O (centres unmarked) [Compound 58]', 'TLR-4 activity of A. baumannii culture supernatants', '< 20%'),
  ('O=C(NCC(F)F)C(Cc1ccc(C#Cc2ccc(CN3CCOCC3)cc2)cc1)c1nc[nH]c(=O)c1O (centres unmarked) [Compound 1]', 'TLR-4 activity of A. baumannii culture supernatants', '< 20%'),
  ('N#CC1CCN(Cc2ccc(C#Cc3ccc(CC(C(=O)NCC(F)F)c4nc[nH]c(=O)c4O)cc3)cc2)C1 (centres unmarked) [Compound 102]', 'TLR-4 activity of A. baumannii culture supernatants', '< 20%'),
  ('O=C(NCCF)C(Cc1ccc(C#Cc2ccc(CN3CCOCC3)cc2)cc1)c1nc[nH]c(=O)c1O (centres unmarked) [Compound 3]', 'TLR-4 activity of A. baumannii culture supernatants', '20 to 50%'),
  ('O=c1[nH]cnc(CCc2ccc(C#Cc3ccc(CN4CC(O)C4)cc3)c(F)c2)c1O [Compound 187]', 'TLR-4 activity of A. baumannii culture supernatants', '20 to 50%');

====

pIC50: −log10 of the molar value.
Measurement record for UniProt:P0A725; quantity recorded: pIC50.
measure: pIC50

INSERT INTO measurements (compound, measure, result) VALUES
  ('COC1CN(Cc2ccc(C#Cc3ccc(CC(C(=O)NCC(F)F)c4nc[nH]c(=O)c4O)cc3)cc2)C1 (stereo not shown)', 'pIC50', '7.30 to 8.00'),
  ('O=c1[nH]cnc(C(CNCCF)Cc2ccc(C#Cc3ccc(CO)cc3)cc2)c1O (stereo not shown)', 'pIC50', '6.00 to 7.00'),
  ('O=C1CCCN1Cc1ccc(C#Cc2ccc(CC(CNCCF)c3nc[nH]c(=O)c3O)cc2)cc1 (stereo not shown)', 'pIC50', '7.30 to 8.00'),
  ('CS(=O)(=O)NCC(Cc1ccc(C#Cc2ccc(CN3CCOCC3)cc2)cc1)c1nc[nH]c(=O)c1O (stereo not shown)', 'pIC50', '6.00 to 7.00');

====

tested on: E. coli; test: Bacterial susceptibility testing, MIC by broth microdilution (CLSI); format: cell-based; conditions: Escherichia coli, read-out: E. coli MIC
measure: MIC

INSERT INTO measurements (compound, measure, result) VALUES
  ('N[C@@H]1CCN(Cc2ccc(C#Cc3ccc(CC(CNC(=O)CF)c4nc[nH]c(=O)c4O)cc3)cc2)C1 (stereo partly drawn) [Compound 45]', 'MIC', '> 32 µg/mL'),
  ('O=C(CF)NCC(Cc1ccc(C#Cc2ccc(CN3CC4CCC(C3)O4)cc2)cc1)c1nc[nH]c(=O)c1O (stereo not drawn) [Compound 13]', 'MIC', '1 to 8 µg/mL'),
  ('O=C(CF)NCC(Cc1ccc(C#Cc2ccc(CN3CCCC3)cc2)cc1)c1nc[nH]c(=O)c1O (stereo not drawn) [Compound 44]', 'MIC', '> 32 µg/mL'),
  ('CC(NC(=O)CF)C(Cc1ccc(C#Cc2ccc(CN3CCOCC3)cc2)cc1)c1nc[nH]c(=O)c1O (stereo not drawn) [Compound 42]', 'MIC', '> 32 µg/mL'),
  ('O=C(CF)NCC(Cc1ccc(C#Cc2ccc(CN3CCOCC3)cc2)cc1)c1nc[nH]c(=O)c1O (stereo not drawn) [Compound 12]', 'MIC', '< 1 µg/mL'),
  ('O=C(CF)NCC(Cc1ccc(C#Cc2ccc(CCN3CCOCC3)cc2)cc1)c1nc[nH]c(=O)c1O (stereo not drawn) [Compound 16]', 'MIC', '1 to 8 µg/mL');

====

Measurement record for E. coli LpxC (Escherichia coli, UniProt P0A725); quantity recorded: IC50.
measure: IC50

INSERT INTO measurements (compound, result) VALUES
  ('COCCc1ccc(C#Cc2ccc(CC(C(=O)NCC(F)F)c3nc[nH]c(=O)c3O)cc2)cc1 (centres unmarked) [Compound 114]', '50 to 100 nM'),
  ('O=C(CF)NCC(Cc1ccc(C#Cc2ccc(CN3CCOCC3)cc2)cc1)c1nc[nH]c(=O)c1O (centres unmarked) [Compound 12]', '10 to 50 nM'),
  ('O=C(NCCF)C(Cc1ccc(C#Cc2ccc(CN3CCOCC3)cc2)cc1)c1nc[nH]c(=O)c1O (centres unmarked) [Compound 3]', '10 to 50 nM'),
  ('COCCNC(=O)C(Cc1ccc(C#Cc2ccc(CN3CCOCC3)cc2)cc1)c1nc[nH]c(=O)c1O (centres unmarked) [Compound 153]', '10 to 50 nM'),
  ('O=c1[nH]cnc(C(CNCC(F)F)Cc2ccc(C#Cc3ccc(CN4CCOCC4)cc3)cc2)c1O (centres unmarked) [Compound 57]', '100 to 1000 nM');
